From: ChEMBL document CHEMBL5726951

Molecular target: UniProtKB O60674
Sequence (O60674 whole entry, canonical isoform): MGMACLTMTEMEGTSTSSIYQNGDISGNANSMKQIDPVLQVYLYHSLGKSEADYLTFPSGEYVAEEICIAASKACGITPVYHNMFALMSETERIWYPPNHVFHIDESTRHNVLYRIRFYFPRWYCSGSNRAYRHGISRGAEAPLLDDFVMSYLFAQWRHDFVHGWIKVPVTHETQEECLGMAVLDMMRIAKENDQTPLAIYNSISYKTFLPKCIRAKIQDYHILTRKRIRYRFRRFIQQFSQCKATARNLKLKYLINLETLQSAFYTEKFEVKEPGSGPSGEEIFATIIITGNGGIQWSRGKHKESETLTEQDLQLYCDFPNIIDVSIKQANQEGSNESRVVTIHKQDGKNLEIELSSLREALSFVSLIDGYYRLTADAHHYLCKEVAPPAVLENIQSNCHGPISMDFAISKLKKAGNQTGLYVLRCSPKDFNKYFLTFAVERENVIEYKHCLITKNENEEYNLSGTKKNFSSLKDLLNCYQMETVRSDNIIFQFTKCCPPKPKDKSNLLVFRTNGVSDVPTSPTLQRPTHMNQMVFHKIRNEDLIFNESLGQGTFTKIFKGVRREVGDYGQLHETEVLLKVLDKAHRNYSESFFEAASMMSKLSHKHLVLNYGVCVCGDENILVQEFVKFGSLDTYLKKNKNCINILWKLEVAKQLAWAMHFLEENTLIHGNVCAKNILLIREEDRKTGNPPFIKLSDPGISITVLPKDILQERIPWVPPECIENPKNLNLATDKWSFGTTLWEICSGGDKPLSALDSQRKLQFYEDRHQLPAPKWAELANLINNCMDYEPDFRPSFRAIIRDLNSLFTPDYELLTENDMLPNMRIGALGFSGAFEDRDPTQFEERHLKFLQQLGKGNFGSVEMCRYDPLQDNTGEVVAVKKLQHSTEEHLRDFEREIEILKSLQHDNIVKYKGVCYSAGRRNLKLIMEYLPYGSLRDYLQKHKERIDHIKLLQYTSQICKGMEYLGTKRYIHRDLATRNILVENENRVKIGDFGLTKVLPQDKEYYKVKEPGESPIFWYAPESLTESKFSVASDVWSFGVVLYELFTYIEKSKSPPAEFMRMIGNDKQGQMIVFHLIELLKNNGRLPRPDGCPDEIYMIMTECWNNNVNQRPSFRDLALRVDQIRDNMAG
Assay: LC/MS grade water and acetonitrile (ACN), were purchased from HoneyWell, Burdick & Jackson (Muskegon, Mich., USA). […] The compounds were tested in duplicate. Column 12 was used for positive controls, and column 24 contained negative controls with no enzyme added. A compound from our internal collection, with inhibitory activity for JAK isoforms, was used as a reference compound. […] The enzyme reaction was initiated by the addition of 10 μL of enzyme and ATP mixture to 10 μL of substrate solution prepared in reaction buffer (50 mM MOPS pH 7.5, 10 mM MgCl2, 1 mM EDTA, 2 mM DTT, 0.002% Tween-20). The Tyk2 enzyme was pre-incubated with 2 mM ATP for 30 min prior to the reaction initiation. Immediately after the addition of the enzyme to the reaction mixture, the plate was centrifuged at 1000 rpm for 1 minute and incubated at 25° C. for 45 minutes for JAK3 and 90 minutes for JAK1, JAK2 and Tyk2. […] The plates then were transferred on to the RapidFire for the MS analysis. Compound inhibition was assessed by a decrease of the phosphorylated product levels in sample wells compared to the non-inhibited enzyme reaction.
PARAMETER_MEASURED: IC50

Exam item: Requested field: IC50. Item: `Cc1nc2cnc3[nH]ccc3c2n1[C@H]1CC[C@H](CC#N)CC1`
Marked response: < 200 pM

Exam item: Requested field: IC50. Item: `N#CC[C@H]1CC[C@H](n2c(CO)nc3cnc4[nH]ccc4c32)CC1`
Marked response: < 200 pM
